- test target: T1, mouse serum albumin (mouse, UniProt P07724 25-608)
- T1 construct: Bought protein, immobilized on a CM5 chip by amine coupling; also called Mouse SA
- test name: SPR (Biacore 8K), albumin immobilized on CM5 chip, 25 C, 1:1 kinetic fit
parameter: koff

Give koff for RLN Analog 1 (other) EVQLLESGGGLVQPGGSLRLSCAASGRYIDETAVAWFRQAPGKEREFVAGIGGGVDITYYADSVKGRFTISRDNSKNTLYLQMNSLRPEDTAVYYCAARPGRPLITSKVADLYPYWGQGTLVTVSSGGGGQGGGGQGGGGQGGGGQGGGGQQLYSALANKCCHVGCTKRSLARFCGGGSGGSGGGSWMEEVIKLCGRELVRAQIAICGMSTWS
0.0042 s⁻¹

Give koff for RLN Analog 5 (other, Single-chain fusion: RLN2 B chain (desB1) - L2 - RLN2 A chain - (G4Q)5 L1 - VHH (C-terminal)) SWMEEVIKLCGRELVRAQIAICGMSTWSGGGSGGSGGGQLYSALANKCCHVGCTKRSLARFCGGGGQGGGGQGGGGQGGGGQGGGGQEVQLLESGGGLVQPGGSLRLSCAASGRYIDETAVAWFRQAPGKEREFVAGIGGGVDITYYADSVKGRFTISRDNSKNTLYLQMNSLRPEDTAVYYCAARPGRPLITSKVADLYPYWGQGTLVTVSSPP
0.0083 s⁻¹

Give koff for RLN Analog 9 (other, Single-chain fusion: RLN2 B chain (desB1) - L2 - RLN2 A chain - (G4Q)5 L1 - VHH (C-terminal)) SWMEEVIKLCGRELVRAQIAICGMSTWSGGGSGGSGGGQLYSALANKCCHVGCTKRSLARFCGGGGQGGGGQGGGGQGGGGQGGGGQEVQLLESGGGLVQPGGSLRLSCAASGRYIDETAVAWFRQAPGKGREFVAGIGGGVDITYYADSVKGRFTISRDNSKNTLYLQMNSLRPEDTAVYYCAARPGRPLITSKVADLYPYWGQGTLVTVSSPP
0.011 s⁻¹
